# measurementDescription: Biotin-PGE2 ELISA (PGE2-biotinamide binding to captured IgG)
# testSettings: Biotin-PGE2 0.3 μM
measureName: Binding to PGE2-Biotinamide (OD450)
Please respond with just the number, no unit label.

For the molecule K1B: human anti-PGE2 antibody from PROfusion mRNA display; VH SEQ ID NO 5, VL SEQ ID NO 9 (antibody, V domains shown) VH: EVQLVQSGAEVKRPGASVKVSCKTSGYTFTNYDINWVRLAPGQGLEWMGCMNPTTGKTGYAQKFQGRVTMTRDTTIATAYMELSRLTSEDTAVYYCARGRGYSPGYGVAYADYWGQGTLVTVSS VL: DIQLTQSPSSLPASVGDRVTITCRASQSISTYLNWYQQTPGKAPSLLIYAASSLQSGVPSRFSGSGSGTDFTLTISSLQPEDFATYYCQQSYSPPPTFGGGTKVEIKR , what Binding to PGE2-Biotinamide (OD450) is on record?
0.21

Please answer likewise for L11: human anti-PGE2 antibody from PROfusion mRNA display; VH SEQ ID NO 25, VL SEQ ID NO 29 (antibody, V domains shown) VH: EVQLVQSGPELKKPGTSVKVSCKASGYTLTTYAMNWVRQAPGQGLEWMGWIDTSTGNPTYAPGFLGRFVFSLDTSLSTTYLQISSLKPDDTAVYYCARSSHTRPGDFWGQGTLVTVSS VL: QSGLTQPPSVSGTPGQRVTISCSGSESNVGTNSVNWYQQLPGAAPRLLIRGNSDRPSGVPDRFSASKSGTSASLAISRLQSEDEADYFCGACDGRLSGLYVFGTGTKVTVL
0.04
